System: K. pneumoniae ATCC 700603
Assay: Broth microdilution MIC/MBC, K. pneumoniae
Format: cell-based, Klebsiella pneumoniae
Details: value before the parentheses; two values = two repeats
Overview of recorded MIC K. pneumoniae ATCC 700603 for various compounds
READOUT: MIC K. pneumoniae ATCC 700603

compound="CC(=O)OCC1O[C@@H]([S][Au-][P+](c2ccc(C(F)(F)F)cc2)(c2ccc(C(F)(F)F)cc2)c2ccc(C(F)(F)F)cc2)C(OC(C)=O)[C@@H](OC(C)=O)[C@@H]1OC(C)=O (stereo partly shown) [Compound 36]" experimental_value=">249 µM"
compound="C[PH](C)(C)[Au][S]C1OC(CO)C(O)C(O)C1O (stereo not shown) [Compound 37]" experimental_value="34 µM"
compound="Fc1ccc([PH+](c2ccc(F)cc2)c2ccc(F)cc2)cc1.[Cl][Au] [Compound 29]" experimental_value=">467 µM"
compound="CC[PH](CC)(CC)[Au][S]c1ccc(C(F)(F)F)cc1 [Compound 20]" experimental_value=">520 µM"

###

Tested on: S. aureus JE2 (USA300)
Test: Broth microdilution MIC/MBC, S. aureus
Format: cell-based, Staphylococcus aureus
READOUT: MIC S. aureus

molecule="CC[PH](CC)(CC)[Au][S]c1ccccc1N [Compound 16]" experimental_value="in the nanomolar range"
molecule="CC[P+](CC)(CC)[Au-][S]CC(=O)OC [Compound 22]" experimental_value="in the nanomolar range"
molecule="CC[P+](CC)(CC)[Au-][S]CC(F)(F)F [Compound 23]" experimental_value="in the nanomolar range"
molecule="CC[P+](CC)(CC)[Au-][S]c1ccc([N+](=O)[O-])cc1 [Compound 19]" experimental_value="in the nanomolar range"

###

Tested on: E. cloacae NCTC 13405
Experiment: Broth microdilution MIC/MBC, E. cloacae
Type: cell-based, Enterobacter cloacae
Conditions: value before the parentheses; two values = two repeats
READOUT: MIC E. cloacae NCTC 13405

compound="CC[PH](CC)(CC)[Au][S]c1ccc(N)cc1 [Compound 17]" tgt="E. cloacae NCTC 13405" readout="MIC E. cloacae NCTC 13405" experimental_value="36 µM"
compound="CC[P+](CC)(CC)[Au-][S]CC(=O)OC [Compound 22]" tgt="E. cloacae NCTC 13405" readout="MIC E. cloacae NCTC 13405" experimental_value="38 µM"
compound="[Cl][Au].c1ccc(P(c2ccccc2)c2ccccc2)cc1 [Compound 27, (Triphenylphosphine)gold Chloride]" tgt="E. cloacae NCTC 13405" readout="MIC E. cloacae NCTC 13405" experimental_value=">518 µM"
compound="CC(=O)OCC1O[C@@H]([S][Au-][P+](c2ccc(F)cc2)(c2ccc(F)cc2)c2ccc(F)cc2)C(OC(C)=O)[C@@H](OC(C)=O)[C@@H]1OC(C)=O (some centres unmarked) [Compound 35]" tgt="E. cloacae NCTC 13405" readout="MIC E. cloacae NCTC 13405" experimental_value=">292 µM"
compound="CCCC[P+](CCCC)(CCCC)[Au-][S][C@@H]1OC(COC(C)=O)[C@@H](OC(C)=O)[C@H](OC(C)=O)C1OC(C)=O (some centres unmarked) [Compound 32]" tgt="E. cloacae NCTC 13405" readout="MIC E. cloacae NCTC 13405" experimental_value=">336 µM"
compound="CCP(CC)CC.[Au+].[Cl-] [Compound 25, (Triethylphosphine)gold Chloride]" tgt="E. cloacae NCTC 13405" readout="MIC E. cloacae NCTC 13405" experimental_value="23 µM"
compound="CC(=O)OCC1O[C@@H]([S][Au-][P+](c2ccc(C(F)(F)F)cc2)(c2ccc(C(F)(F)F)cc2)c2ccc(C(F)(F)F)cc2)C(OC(C)=O)[C@@H](OC(C)=O)[C@@H]1OC(C)=O (some centres unmarked) [Compound 36]" tgt="E. cloacae NCTC 13405" readout="MIC E. cloacae NCTC 13405" experimental_value=">249 µM"
compound="CC(=O)OCC1O[C@@H]([S][Au-][P+](c2ccccc2)(c2ccccc2)c2ccccc2)C(OC(C)=O)[C@@H](OC(C)=O)[C@@H]1OC(C)=O (some centres unmarked) [Compound 33]" tgt="E. cloacae NCTC 13405" readout="MIC E. cloacae NCTC 13405" experimental_value=">311 µM"

###

Test system: E. faecium ATCC 700221
Test: Broth microdilution MIC/MBC, E. faecium
Assay type: cell-based, Enterococcus faecium
Details: value before the parentheses; two values = two repeats
READOUT: MIC E. faecium ATCC 700221 (µM)

molecule="CC[PH](CC)(CC)[Au][O]C1OC(CO)C(OC2OC(CO)C(O)C(O)C2O)C(O)C1O (stereo not shown)" experimental_value=0.09
molecule=CC[PH](CC)(CC)[Au][S]c1ccccc1N experimental_value=0.02
molecule=CC[PH](CC)(CC)[Au][S]c1ccccc1 experimental_value=0.6
molecule=CC[PH](CC)(CC)[Au][S]c1ccc(C(F)(F)F)cc1 experimental_value=0.02
molecule=CC[PH](CC)(CC)[Au][S]c1ccc(N)cc1 experimental_value=0.02
molecule=C[PH](C)(C)[Au][S]CCO experimental_value=0.3
molecule="[Cl][Au].c1ccc(P(c2ccccc2)c2ccccc2)cc1 [Compound 27, (Triphenylphosphine)gold Chloride]" experimental_value=4

###

Measured MBC S. aureus JE2 (USA300) by item
System: S. aureus JE2 (USA300)
Test: Broth microdilution MIC/MBC, S. aureus
Format: cell-based, Staphylococcus aureus
Conditions: value in parentheses
READOUT: MBC S. aureus JE2 (USA300) (µM)

compound="CP(C)C.[Cl][Au] [Compound 24, (Trimethylphosphine)gold Chloride]" tgt="S. aureus JE2 (USA300)" readout="MBC S. aureus JE2 (USA300)" experimental_value=1.6
compound=CC[P+](CC)(CC)[Au-][S]CC(F)(F)F tgt="S. aureus JE2 (USA300)" readout="MBC S. aureus JE2 (USA300)" experimental_value=0.1
compound="CC[PH](CC)(CC)[Au][O]C1OC(CO)C(OC2OC(CO)C(O)C(O)C2O)C(O)C1O (stereo not shown)" tgt="S. aureus JE2 (USA300)" readout="MBC S. aureus JE2 (USA300)" experimental_value=0.09
compound="CC[PH](CC)(CC)[Au][S][C@@H]1O[C@H](COC(C)=O)[C@@H](OC(C)=O)[C@H](OC(C)=O)[C@H]1OC(C)=O [Compound 1, reference compound]" tgt="S. aureus JE2 (USA300)" readout="MBC S. aureus JE2 (USA300)" experimental_value=0.09

###

The entries below come with measured MIC K. pneumoniae ATCC 700603 values attached.
Test system: K. pneumoniae ATCC 700603
Test: Broth microdilution MIC/MBC, K. pneumoniae
Type: cell-based, Klebsiella pneumoniae
Settings: value before the parentheses; two values = two repeats
READOUT: MIC K. pneumoniae ATCC 700603 (µM)

molecule="CC[PH](CC)(CC)[Au][O]C1OC(CO)C(OC2OC(CO)C(O)C(O)C2O)C(O)C1O (centres unmarked)" tgt="K. pneumoniae ATCC 700603" readout="MIC K. pneumoniae ATCC 700603" prefix_operator== experimental_value=381
molecule=C[PH](C)(C)[Au][S]CCO tgt="K. pneumoniae ATCC 700603" readout="MIC K. pneumoniae ATCC 700603" prefix_operator== experimental_value=11
molecule="CCCC[P+](CCCC)(CCCC)[Au-][S][C@@H]1OC(COC(C)=O)[C@@H](OC(C)=O)[C@H](OC(C)=O)C1OC(C)=O (some centres unmarked)" tgt="K. pneumoniae ATCC 700603" readout="MIC K. pneumoniae ATCC 700603" prefix_operator=> experimental_value=336
molecule=CC[PH](CC)(CC)[Au][S]c1ccccc1N tgt="K. pneumoniae ATCC 700603" readout="MIC K. pneumoniae ATCC 700603" prefix_operator== experimental_value=146
molecule="CC(=O)OCC1O[C@@H]([S][Au-][P+](c2ccccc2)(c2ccccc2)c2ccccc2)C(OC(C)=O)[C@@H](OC(C)=O)[C@@H]1OC(C)=O (some centres unmarked)" tgt="K. pneumoniae ATCC 700603" readout="MIC K. pneumoniae ATCC 700603" prefix_operator=> experimental_value=311
molecule="CC(=O)OCC1O[C@@H]([S][Au-][P+](C)(C)C)C(OC(C)=O)[C@@H](OC(C)=O)[C@@H]1OC(C)=O (some centres unmarked)" tgt="K. pneumoniae ATCC 700603" readout="MIC K. pneumoniae ATCC 700603" prefix_operator== experimental_value=13
molecule=CC[P+](CC)(CC)[Au-][S]CC(F)(F)F tgt="K. pneumoniae ATCC 700603" readout="MIC K. pneumoniae ATCC 700603" prefix_operator== experimental_value=149
molecule="CCP(CC)CC.[Au+].[Cl-] [Compound 25, (Triethylphosphine)gold Chloride]" tgt="K. pneumoniae ATCC 700603" readout="MIC K. pneumoniae ATCC 700603" prefix_operator== experimental_value=46
